Answer each item with its documented Emax.
# assayedTarget: Human recombinant PDE2A (hPDE2A) (Homo sapiens, UniProt O00408)
# Construct: His tag (inferred from metal chelate purification); made in house; host or cells: Sf9 insect cells (baculovirus)
# Sequence (O00408 whole entry): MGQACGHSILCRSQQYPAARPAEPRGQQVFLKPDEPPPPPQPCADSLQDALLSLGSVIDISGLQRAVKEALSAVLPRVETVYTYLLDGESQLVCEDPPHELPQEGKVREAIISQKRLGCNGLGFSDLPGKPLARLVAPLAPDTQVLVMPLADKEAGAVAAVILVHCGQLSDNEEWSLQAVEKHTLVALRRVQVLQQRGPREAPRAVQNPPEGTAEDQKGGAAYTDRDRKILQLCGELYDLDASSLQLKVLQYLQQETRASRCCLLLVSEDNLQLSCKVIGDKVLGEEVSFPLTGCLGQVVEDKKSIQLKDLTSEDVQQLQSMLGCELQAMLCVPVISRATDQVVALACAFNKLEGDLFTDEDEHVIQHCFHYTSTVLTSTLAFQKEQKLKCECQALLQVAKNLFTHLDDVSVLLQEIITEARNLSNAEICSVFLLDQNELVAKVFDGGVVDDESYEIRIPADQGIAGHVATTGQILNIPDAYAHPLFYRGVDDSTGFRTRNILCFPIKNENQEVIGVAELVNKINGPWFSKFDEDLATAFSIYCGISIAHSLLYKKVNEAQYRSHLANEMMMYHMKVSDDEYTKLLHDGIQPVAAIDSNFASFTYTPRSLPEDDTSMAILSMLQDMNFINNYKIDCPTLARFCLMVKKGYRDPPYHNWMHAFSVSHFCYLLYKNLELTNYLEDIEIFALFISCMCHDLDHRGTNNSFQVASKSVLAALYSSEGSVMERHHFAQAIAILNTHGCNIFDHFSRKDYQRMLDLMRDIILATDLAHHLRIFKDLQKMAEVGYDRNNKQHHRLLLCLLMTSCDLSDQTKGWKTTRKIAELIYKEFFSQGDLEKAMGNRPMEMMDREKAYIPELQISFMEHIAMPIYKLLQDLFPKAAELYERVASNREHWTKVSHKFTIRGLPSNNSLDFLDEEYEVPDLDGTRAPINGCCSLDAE
# protocolSummary: In vitro assay PDE2A (SPA, 3H-cGMP hydrolysis)
# Assay type: biochemical
# conditionSet: read-out: hPDE2A Emax
Respond with the bare value in %.

Item `C[C@@H]1CCN(C(=O)c2ccno2)C[C@H]1c1cc(C(F)F)nc2ncnn12` has what recorded Emax?
99

// query: `COCc1cc(C(=O)N2CC[C@@H](C)[C@H](c3cc(C(F)F)nc4ncnn34)C2)cc(C)n1`
101

// query: `C[C@@H]1CCN(C(=O)c2ccc3ncoc3c2)C[C@H]1c1cc(C(F)F)nc2ncnn12`
100

// query: `O=C(c1ccc(C(F)(F)F)cc1)N1[C@H]2CC[C@H](c3cc(C(F)F)nc4ncnn34)[C@@H]1CC2`
100

----------
Answer each item with its documented Emax.
# assayedTarget: Rat recombinant PDE10A (rPDE10A2) (Rattus norvegicus, UniProt Q9QYJ6)
# Construct: His tag (inferred from metal chelate purification); made in house; host or cells: Sf9 insect cells (baculovirus)
# Sequence (Q9QYJ6 whole entry): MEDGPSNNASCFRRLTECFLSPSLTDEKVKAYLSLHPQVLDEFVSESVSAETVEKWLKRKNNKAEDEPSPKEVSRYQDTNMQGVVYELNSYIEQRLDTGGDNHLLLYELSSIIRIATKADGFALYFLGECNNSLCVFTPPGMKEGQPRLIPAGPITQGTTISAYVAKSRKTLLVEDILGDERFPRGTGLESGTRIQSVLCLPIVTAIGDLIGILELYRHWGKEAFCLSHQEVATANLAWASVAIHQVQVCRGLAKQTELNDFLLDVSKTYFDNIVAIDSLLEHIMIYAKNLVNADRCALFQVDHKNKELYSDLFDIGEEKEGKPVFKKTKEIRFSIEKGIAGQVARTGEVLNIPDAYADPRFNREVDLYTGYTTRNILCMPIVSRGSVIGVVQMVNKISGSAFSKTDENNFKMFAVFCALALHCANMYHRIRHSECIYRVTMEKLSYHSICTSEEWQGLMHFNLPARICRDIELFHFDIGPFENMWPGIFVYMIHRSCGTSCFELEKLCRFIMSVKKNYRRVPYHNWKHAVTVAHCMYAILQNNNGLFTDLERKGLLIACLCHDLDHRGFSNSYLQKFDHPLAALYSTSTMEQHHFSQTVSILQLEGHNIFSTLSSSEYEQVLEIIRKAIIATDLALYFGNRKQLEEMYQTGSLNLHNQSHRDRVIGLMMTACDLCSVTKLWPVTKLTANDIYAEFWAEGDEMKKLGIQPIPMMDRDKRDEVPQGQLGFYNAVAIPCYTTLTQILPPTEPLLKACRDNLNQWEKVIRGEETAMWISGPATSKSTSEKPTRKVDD
# protocolSummary: In vitro assay PDE10A, rat clone (SPA, 3H-cAMP hydrolysis)
# Type: biochemical
# conditionSet: rat clone (r)
Respond with the bare value in %.

Item `C[C@@H]1CCN(C(=O)c2ccc3c(ccn3CCF)c2)C[C@H]1c1cc(C(F)F)nc2ncnn12` has what recorded Emax?
98

// query: `C[C@@H]1CCN(C(=O)c2ccc3occc3c2)C[C@H]1c1cc(C(F)F)nc2ncnn12`
99

// query: CC1(c2ccnc3ncnn23)CCCN(C(=O)c2ccc3occc3c2)C1 (centres unmarked)
4

// query: CC(=O)N1CCc2cc(C(=O)N3CCC[C@@](C)(c4cc(C(F)F)nc5ncnn45)C3)ccc21 (single isomer, unassigned)
14

// query: CC1(c2cc(C(F)F)nc3ncnn23)CCCN(C(=O)c2ccc3occc3c2)C1 (centres unmarked)
-1

----------
# assayedTarget: Human recombinant PDE2A (hPDE2A) (Homo sapiens, UniProt O00408)
# Construct: His tag (inferred from metal chelate purification); made in house; host or cells: Sf9 insect cells (baculovirus)
# protocolSummary: In vitro assay PDE2A (SPA, 3H-cGMP hydrolysis)
# Format: biochemical
# conditionSet: human recombinant PDE2A, 10 μM cGMP substrate; read-out: hPDE2A pIC50 (converted)
Just a reminder that ties go to 0: only IC50 strictly below 9 nM counts as 1.

Criterion: IC50 strictly below 9 nM. Is it met by `Cc1nc2cc(C(=O)N3CC[C@@H](C)[C@H](c4cc(C(F)F)nc5ncnn45)C3)ccc2o1` ?
1

// query: Cc1cc(C(=O)N2[C@H]3CC[C@H](c4cc(C(F)F)nc5ncnn45)[C@@H]2CC3)cc(C)n1 [Compound 29]
1

// query: `Cc1cc([C@@H]2CN(C(=O)c3ccc4nccn4c3)CC[C@H]2C)n2ncnc2n1`
1

// query: `C[C@@H]1CCN(C(=O)c2cc3ccccc3n2C)C[C@H]1c1cc(C(F)F)nc2ncnn12`
1

// query: `Cc1cc([C@@H]2CN(C(=O)c3ccc(C(C)(C)C)o3)CC[C@H]2C)n2ncnc2n1`
0

// query: Cc1cc(C)cc(C(=O)N2CCC[C@](C)(c3cc(C(F)F)nc4ncnn34)C2)c1 (single isomer, unassigned)
0

// query: `Cc1cc([C@@H]2CN(C(=O)c3cccc4nc(C)oc34)CC[C@H]2C)n2ncnc2n1`
0

// query: `C[C@@H]1CCN(C(=O)c2cc(Cl)cnc2C(F)(F)F)C[C@H]1c1cc(C(F)F)nc2ncnn12`
1

// query: `Cc1ncoc1C(=O)N1CC[C@@H](C)[C@H](c2cc(C(F)F)nc3ncnn23)C1`
0

// query: `Cc1csc(C(=O)N2CC[C@H](C)[C@@H](c3cc(C(F)F)nc4ncnn34)C2)c1`
0

// query: `C[C@@H]1CCN(C(=O)c2ccc(C#N)cn2)C[C@H]1c1cc(C(F)F)nc2ncnn12`
0

// query: `Cc1cc(C(=O)N2CC[C@@H](C)[C@H](c3cc(C(F)F)nc4ncnn34)C2)no1`
0

// query: `C[C@@H]1CCN(C(=O)c2csc(N)n2)C[C@H]1c1cc(C(F)F)nc2ncnn12`
0

// query: CCCC[C@@H]1CCN(C(=O)c2cc(C)nc(C)c2)C[C@H]1c1cc(C(F)F)nc2ncnn12 (mixture of isomers) [Compound 44]
0

// query: `Cc1cc([C@@H]2CC[C@@H]3CC[C@H]2N3C(=O)c2ccc3ncsc3c2)n2ncnc2n1`
0

// query: `COc1c(C)cc(C(=O)N2CC[C@@H](C)[C@@](F)(c3cc(C(F)F)nc4ncnn34)C2)cc1C`
0

// query: `Cc1ccc2cc(C(=O)N3CC[C@@H](C)[C@H](c4cc(C(F)F)nc5ncnn45)C3)c(C)nc2c1`
1

// query: `Cc1cc([C@@H]2CN(C(=O)c3cc(Cl)ncc3C)CC[C@H]2C)n2ncnc2n1`
1

// query: `C[C@@H]1CCN(C(=O)c2ccc(C3CC3)c(F)c2)C[C@H]1c1cc(C(F)F)nc2ncnn12`
1

// query: `C[C@@H]1CCN(C(=O)c2ccnc(Cl)c2F)C[C@H]1c1cc(C(F)F)nc2ncnn12`
0

// query: `CCc1cc(C(=O)N2CC[C@@H](C)[C@H](c3cc(C(F)F)nc4ncnn34)C2)cc(C)n1`
1

// query: `Cc1ccc(C(=O)N2CC[C@@H](C)[C@H](c3cc(C(F)F)nc4ncnn34)C2)nc1C`
1

// query: `COc1ncc(C(=O)N2CC[C@@H](C)[C@H](c3cc(C(F)F)nc4ncnn34)C2)cc1Cl`
1

// query: `Cc1cc(C(=O)N2[C@H]3CC[C@@H]2[C@H](c2cc(C(F)F)nc4ncnn24)CC3)cc(C)n1`
0

// query: `CC(C)Oc1cc(C(=O)N2CC[C@@H](C)[C@H](c3cc(C(F)F)nc4ncnn34)C2)cc(C(C)C)c1`
0

// query: `C[C@@H]1CCN(C(=O)c2cccc(C#N)c2)C[C@H]1c1cc(C(F)F)nc2ncnn12`
0

// query: `Cc1cc(C(=O)N2CC[C@@H](C)[C@@](F)(c3cc(C(F)F)nc4ncnn34)C2)cc(C)n1`
0

// query: C[C@]1(c2cc(C(F)F)nc3ncnn23)CCCN(C(=O)c2ccc3c(ccn3CCF)c2)C1 (single isomer, unassigned)
0

// query: `C[C@@H]1CCN(C(=O)c2c(F)cccc2F)C[C@H]1c1cc(C(F)F)nc2ncnn12`
0

----------
Answer each item with its documented Emax.
# assayedTarget: Human recombinant PDE3A (hPDE3A) (Homo sapiens, UniProt Q14432)
# Construct: purchased Scottish Biomedical; host or cells: Sf9 insect cells
# Sequence (Q14432 whole entry): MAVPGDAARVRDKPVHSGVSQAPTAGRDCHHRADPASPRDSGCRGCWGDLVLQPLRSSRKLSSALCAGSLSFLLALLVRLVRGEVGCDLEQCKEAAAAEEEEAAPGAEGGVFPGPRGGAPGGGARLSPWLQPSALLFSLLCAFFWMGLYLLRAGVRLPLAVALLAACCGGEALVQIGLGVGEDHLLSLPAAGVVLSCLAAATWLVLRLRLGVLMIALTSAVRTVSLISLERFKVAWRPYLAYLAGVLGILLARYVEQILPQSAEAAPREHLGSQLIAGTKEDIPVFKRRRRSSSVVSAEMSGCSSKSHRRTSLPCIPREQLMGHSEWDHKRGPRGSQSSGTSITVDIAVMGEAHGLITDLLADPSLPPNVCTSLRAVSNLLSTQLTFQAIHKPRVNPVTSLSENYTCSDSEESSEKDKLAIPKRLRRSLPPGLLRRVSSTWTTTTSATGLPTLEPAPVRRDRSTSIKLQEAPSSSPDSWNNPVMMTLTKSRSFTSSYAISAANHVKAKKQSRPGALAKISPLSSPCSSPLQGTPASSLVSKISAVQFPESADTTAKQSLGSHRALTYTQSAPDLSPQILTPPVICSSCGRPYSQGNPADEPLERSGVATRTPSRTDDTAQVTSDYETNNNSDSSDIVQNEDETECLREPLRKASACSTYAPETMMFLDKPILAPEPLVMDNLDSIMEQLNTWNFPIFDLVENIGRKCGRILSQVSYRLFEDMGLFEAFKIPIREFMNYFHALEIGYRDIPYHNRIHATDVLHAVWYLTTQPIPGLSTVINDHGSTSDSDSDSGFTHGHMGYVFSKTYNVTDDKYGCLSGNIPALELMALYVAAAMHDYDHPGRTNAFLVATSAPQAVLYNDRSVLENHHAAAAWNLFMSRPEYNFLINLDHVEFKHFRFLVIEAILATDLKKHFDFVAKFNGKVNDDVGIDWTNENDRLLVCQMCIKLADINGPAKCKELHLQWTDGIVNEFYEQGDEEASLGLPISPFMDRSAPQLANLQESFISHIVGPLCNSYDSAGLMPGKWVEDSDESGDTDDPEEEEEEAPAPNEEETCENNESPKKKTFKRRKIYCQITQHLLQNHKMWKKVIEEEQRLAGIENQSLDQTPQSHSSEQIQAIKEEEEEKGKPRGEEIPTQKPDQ
# protocolSummary: In vitro assay PDE3A (SPA, 3H-cAMP hydrolysis);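 also: the method names PDE3A and the table heading PDE3B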
# Format: biochemical
# conditionSet: read-out: hPDE3B Emax; read-out: Emax
Respond with the bare value in %.

Item `Cc1cc(C(=O)N2CC[C@@H](C)[C@H](c3cc(C(F)F)nc4ncnn34)C2)cc(OC(C)C)n1` has what recorded Emax?
61

// query: `C[C@@H]1CCN(C(=O)c2cnc3ccccc3c2)C[C@H]1c1cc(C(F)F)nc2ncnn12`
97

// query: `C[C@@H]1CCN(C(=O)c2ccc(F)c(F)c2F)C[C@H]1c1cc(C(F)F)nc2ncnn12`
62

// query: `C[C@@H]1CCN(C(=O)c2ccc3ocnc3c2)C[C@H]1c1cc(C(F)F)nc2ncnn12`
82

// query: `O=C(c1ccc(C(F)(F)F)c(F)c1)N1[C@H]2CC[C@H](c3cc(C(F)F)nc4ncnn34)[C@@H]1CC2`
62

// query: `Cc1nc(C)c(C(=O)N2CC[C@@H](C)[C@H](c3cc(C(F)F)nc4ncnn34)C2)s1`
47

// query: `C[C@@H]1CCN(C(=O)c2cnc3n2CCCC3)C[C@H]1c1cc(C(F)F)nc2ncnn12`
32

// query: `Cc1cc(C(=O)N2CC[C@@H](C)[C@H](c3cc(C(F)F)nc4ncnn34)C2)cc(C2CC2)n1`
84

// query: `COc1cc(C(=O)N2CC[C@@H](C)[C@H](c3cc(C)nc4ncnn34)C2)cc(Cl)n1`
87

// query: `COc1ccc(C(=O)N2CC[C@@H](C)[C@H](c3cc(C(F)F)nc4ncnn34)C2)cn1`
68

// query: `Cc1cc(C(=O)N2CC[C@@H](C)[C@H](c3cc(C(F)F)nc4ncnn34)C2)cc(Cl)c1F`
85

// query: `C[C@@H]1CCN(C(=O)c2cnc(Br)s2)C[C@H]1c1cc(C(F)F)nc2ncnn12`
44

// query: `Cc1ccc(C(=O)N2[C@H]3CC[C@H](c4cc(C(F)F)nc5ncnn45)[C@@H]2CC3)s1`
64

// query: `O=C(c1ccc(Cl)c(Cl)c1)N1[C@H]2CC[C@H](c3cc(C(F)F)nc4ncnn34)[C@@H]1CC2`
65

// query: Cc1ccc(C(=O)N2CCC[C@](C)(c3cc(C(F)F)nc4ncnn34)C2)c(C)n1 (single isomer, unassigned)
5

// query: `C[C@@H]1CCN(C(=O)c2noc3ccccc23)C[C@H]1c1cc(C(F)F)nc2ncnn12`
74

// query: `C[C@@H]1CCN(C(=O)c2cc(Cl)nc(Cl)c2F)C[C@H]1c1cc(C(F)F)nc2ncnn12`
32

// query: `Cc1cc([C@@H]2CN(C(=O)c3cc(C4CC4)ncc3Cl)CC[C@H]2C)n2ncnc2n1`
81

// query: `C[C@@H]1CCN(C(=O)c2ccncc2C(F)(F)F)C[C@H]1c1cc(C(F)F)nc2ncnn12`
16

// query: `C[C@@H]1CCN(C(=O)c2ncccc2C(F)(F)F)C[C@H]1c1cc(C(F)F)nc2ncnn12`
17

// query: `COc1cc(C(=O)N2CC[C@@H](C)[C@H](c3cc(C(F)F)nc4ncnn34)C2)nc2ccccc12`
96

// query: `O=C(c1ccc2cccn2c1)N1[C@H]2CC[C@H](c3cc(C(F)F)nc4ncnn34)[C@@H]1CC2`
86

// query: O=C(c1ccc2ncsc2c1)N1[C@H]2CC[C@H](c3cc(C(F)F)nc4ncnn34)[C@@H]1CC2 [Compound 25a]
54

// query: `Cc1cc([C@@H]2CN(C(=O)c3cc4ccccc4o3)CC[C@H]2C)n2ncnc2n1`
97

// query: `C[C@@H]1CCN(C(=O)c2ccc(N)nc2)C[C@H]1c1cc(C(F)F)nc2ncnn12`
52

// query: `COc1ccc(C(=O)N2CC[C@@H](C)[C@H](c3cc(C(F)F)nc4ncnn34)C2)cc1OC(F)F`
85

// query: `Cc1cc([C@@H]2CN(C(=O)c3cc4cccnc4nc3C(F)(F)F)CC[C@H]2C)n2ncnc2n1`
38

// query: `O=C(c1cccc2cccnc12)N1[C@H]2CC[C@H](c3cc(C(F)F)nc4ncnn34)[C@@H]1CC2`
5

// query: `Cc1nn(C)c2sc(C(=O)N3[C@H]4CC[C@H](c5cc(C(F)F)nc6ncnn56)[C@@H]3CC4)cc12`
52

// query: `C[C@@H]1CCN(C(=O)c2ccc3ccccc3c2)C[C@H]1c1cc(C(F)F)nc2ncnn12`
99
